PROPERTY: logP

Below: 6 molecules and their reported logP.
| MOLECULE | logP |
| --- | --- |
| NC(=O)c1ccc(N)nc1 | 0.7 |
| Nc1nc(S)c2nc[nH]c2n1 | -0.07 |
| NCCCC[C@H](N)C(=O)O | -3.05 |
| COc1ccccc1NC(C)=O | 0.67 |
| Nc1nc2c(ncn2[C@H]2C[C@H](O)[C@@H](CO)O2)c(=S)[nH]1 | -0.79 |
| O=C(CCCN1CCC(O)(c2ccc(Cl)cc2)CC1)c1ccc(F)cc1 | 3.36 |

# batch: return logP for each of the 5 molecules below
1. Brc1nc(Br)c(Br)[nH]1
2. Cc1ncc(CO)c(CN)c1O
3. O=[N+]([O-])c1ccc(Br)cc1
4. CC(=O)c1ccc(O)cc1
5. CC(=O)c1ccc(OCC(=O)O)cc1

Reply |
1. 1.96
2. -1.3
3. 2.55
4. 1.35
5. 0.87
